IC50 overview
EXPERIMENTAL SYSTEM: β-lactamase enzyme produced by Staphylococcus aureus Russell (Staphylococcus aureus)
EXPERIMENTAL PROTOCOL: Inhibition of the β-lactamase from Staphylococcus aureus Russell (I50)
TEST CONDITIONS: β-lactamase from Staph. aureus Russell
Record the value in µM, omitting the unit from your answer.

Exercise: Report its IC50 with β-lactamase enzyme produced by Staphylococcus aureus Russell (Staphylococcus aureus) as the test system: O=C1C[C@@H]2O[C@@H](CSc3ccccc3)CN12 (racemic) [Example 7]
Key: 10.2

Exercise: Fetch value of IC50 on β-lactamase enzyme produced by Staphylococcus aureus Russell (Staphylococcus aureus) for O=C1C[C@@H]2O[C@@H](CBr)CN12 (racemic) [Example 2.2] .
Key: 14.6

Exercise: Tell me IC50 of O=C(OC[C@H]1CN2C(=O)C[C@@H]2O1)c1ccc([N+](=O)[O-])cc1 (racemic) [Example 14] when tested on β-lactamase enzyme produced by Staphylococcus aureus Russell (Staphylococcus aureus).
Key: 15.1

###

EXPERIMENTAL SYSTEM: β-lactamase enzyme produced by Staphylococcus aureus Russell (Staphylococcus aureus, UniProt P00807)
Sequence (P00807 25-281): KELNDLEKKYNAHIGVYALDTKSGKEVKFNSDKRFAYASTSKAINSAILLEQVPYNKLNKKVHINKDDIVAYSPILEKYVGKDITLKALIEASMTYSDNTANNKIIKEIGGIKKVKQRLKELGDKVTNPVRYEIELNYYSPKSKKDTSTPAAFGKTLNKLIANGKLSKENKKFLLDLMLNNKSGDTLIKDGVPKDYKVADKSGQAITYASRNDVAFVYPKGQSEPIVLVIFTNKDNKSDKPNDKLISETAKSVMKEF
EXPERIMENTAL PROTOCOL: Inhibition of the β-lactamase from Staphylococcus aureus Russell (I50)
TEST CONDITIONS: β-lactamase from Staph. aureus Russell
This listing pairs compounds with measured pIC50.
To interpret pIC50, take it as minus log10 of a concentration measured in moles per litre.

Take a look at these entries with their results.
>  <COMPOUND>
O=C(Nc1ccccc1)OC[C@H]1CN2C(=O)C[C@@H]2O1 (relative stereo) [Example 22]

>  <VALUE OBSERVED>
5.04

$$$$
>  <COMPOUND>
O=C1C[C@@H]2O[C@@H](COc3ccc([N+](=O)[O-])cc3)CN12 (racemic) [Example 15]

>  <VALUE OBSERVED>
4.78

$$$$
>  <COMPOUND>
O=C1C[C@@H]2O[C@@H](C[S+]([O-])c3ccc([N+](=O)[O-])cc3)CN12 (single isomer, unassigned) [Example 20 (isomer I)]

>  <VALUE OBSERVED>
5.57

$$$$

Exercise: Determine from records and report pIC50 for O=C1C[C@@H]2O[C@@H](CS(=O)(=O)c3ccc([N+](=O)[O-])cc3)CN12 (relative stereo) [Example 0-20]
Key: 5.26

The reported measurements were obtained from patent US4093626A.
